Cited source: patent US6861434B2

Structures can show the parent of a compound that is named as a salt.
What melting point was measured for each of the following?

Use these answered entries as a reference point.
O=c1[nH]c2ccc3c(c2[nH]1)OC(CN1CC=C(c2ccccc2)CC1)CO3 (stereo not shown) (as salt: fumarate) (hydrate or solvate); 205 to 209 °C
O=c1[nH]c2ccc3c(c2[nH]1)OC(CNCC12CC4CC(CC(C4)C1)C2)CO3 (stereo not shown) (as salt: hydrochloride) (hydrate or solvate); > 250 °C
CC(=O)Nc1cccc(OCCCNCC2COc3ccc4[nH]c(=O)[nH]c4c3O2)c1 (stereo not shown) (as salt: fumarate) (hydrate or solvate); 125 °C (dec.)

# batch size: 4; output melting point per entry
1. O=c1[nH]c2ccc3c(c2[nH]1)OC(CN1CCC2C=CC=CC2C1)CO3 (stereo not shown) (as salt: hydrochloride)
2. O=c1[nH]c2ccc3c(c2[nH]1)OC(CNCc1ccccc1)CO3 (stereo not shown) (as salt: fumarate) (hydrate or solvate)
3. O=c1[nH]c2ccc3c(c2[nH]1)OC(CNCCCc1c[nH]c2ccccc12)CO3 (stereo not shown) (as salt: hydrochloride)
4. O=c1[nH]c2ccc3c(c2[nH]1)OC(CNCCCCc1ccccc1)CO3 (stereo not shown) (as salt: fumarate) (hydrate or solvate)

> 275 °C
149 to 151 °C
200 to 207 °C (dec.)
224 to 226 °C
